pIC50: −log10 of the molar value.
Measurement record for FGFR1 (Homo sapiens, UniProt P11362); quantity recorded: pIC50.

A selection of reference data follows.
- CCN1CCC(Nc2ccc3c(c2)/C(=C(/c2ncc[nH]2)c2ccc(F)cc2F)C(=O)N3)CC1: > 7.30
- CCN1CCC(Nc2ccc3c(c2)/C(=C(\c2ccc(C(F)(F)F)cc2)c2nc(C)c[nH]2)C(=O)N3)CC1: > 7.30
- CCN1CCC(Nc2ccc3c(c2)/C(=C(\c2ccc(F)c(C)c2)c2nc4ccccc4[nH]2)C(=O)N3)CC1: 6.30 to 7.30
- CCN1CCC(Nc2ccc3c(c2)/C(=C(\c2ccc(F)c(Cl)c2)c2ncc[nH]2)C(=O)N3)CC1: > 7.30
- CCN1CCC(Nc2ccc3c(c2)/C(=C(\c2cc(F)cc(F)c2)c2ncc[nH]2)C(=O)N3)CC1: > 7.30

Shift focus to the following entry.
Input: Answer with the recorded pIC50 of COCCN1CCC(Nc2ccc3c(c2)/C(=C(\c2cccc(OC)c2)c2nc4ccccc4[nH]2)C(=O)N3)CC1 only.
Output: > 7.30
